- Assay System: human CD123 on cells (human) (UniProt P26951)
- Sequence (P26951 19-378): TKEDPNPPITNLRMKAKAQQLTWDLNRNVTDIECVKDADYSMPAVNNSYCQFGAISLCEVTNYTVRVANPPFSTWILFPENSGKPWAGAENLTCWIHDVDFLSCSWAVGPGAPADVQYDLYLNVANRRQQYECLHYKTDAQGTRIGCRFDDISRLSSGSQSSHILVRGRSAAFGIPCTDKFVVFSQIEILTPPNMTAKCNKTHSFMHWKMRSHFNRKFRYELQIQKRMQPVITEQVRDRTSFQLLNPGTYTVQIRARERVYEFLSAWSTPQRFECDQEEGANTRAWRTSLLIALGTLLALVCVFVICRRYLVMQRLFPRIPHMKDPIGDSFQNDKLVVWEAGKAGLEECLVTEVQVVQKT
- Experiment Description: flow cytometry, TF-1 cells, 3 µg antibody
Recorded Endpoint: % FITC positive cells
Report the figure along with its unit, number first.

// solved cases for % FITC positive cells follow
• CODV-Fab BFX-3E3-D3 × CD3 (bispecific antibody, part only; not given: CD3 arm, linkers, constant domains, V domains shown, part only) VH: QVQLQESGPGLVQPSQTLSLTCTVSGFSLTTYDVHWVRQPPGKGLEWMGRIQNGGITDYNSALKSRLIISRDTSKSQVFLKMNSVQTEDTAMYFCAKTGSYFYAFDHWGQGTLVTVSS VL: QFVLTQPNSVSTNLGSTVKLSCKRNTGNIGSNYVNWYQQHEGRSPTTMIYRDDKRPDGVPDRFSGSIDRSSNSALLTINNVQTEDEADYFCQSYSSGINIIFGGGTKLTVL = 31.6%
• CODV-Fab BFX-9F6-G3 × CD3 (bispecific antibody, part only; not given: CD3 arm, linkers, constant domains, tag, V domains shown, not shown: another chain or arm of the molecule; a dimerising Fc or GST; small tags and cut ends) VH: QVQLQESGPTLVKPGDSVKMSCKASGYTFTDYIIHWVKQSHGKSLEWIGYINPYSDGTNYNEKFKSKATLTVDKSTSTAYMEFSRLTSEDSAIYFCALNYGSYYAMDAWGQGTSVTVSS VL: DIQMTQSPASLSASLGETVTIECRPSEDIHSNVAWYQQKPGNSPQLLIYDASNLADGVPSRFSGSGSGTQYSLKINSLQSEDVASYFCHQYNIYPYTFGSGTKLELK = 60.7%

We next turn to a different binder, shown below.
Incoming: Name the recorded % FITC positive cells for CODV-Fab BFX-9B8-G6 × CD3 (bispecific antibody, part only; not given: CD3 arm, linkers, constant domains, tag, V domains shown, not shown: another chain or arm of the molecule; a dimerising Fc or GST; small tags and cut ends) VH: EVKLQESGPSLVQSSQTLSLTCTVSGFSLTSYHIHWVRQPPGKGLEWMGVMWSDGDTSYSSALKSRLSISRDTSQSQVFLKMNSLQTEDTATYYCARGDYSSYIYLWFAYWGQGTLVTVSS VL: DIVMTQSPSSLAVSAGETVTINCKSSQSFLSSGDERNYVAWYQHKPGQSPKLLIYWASTRHSGVPDRFIGSGSGTDFTLTISSVQAEDLAIYYCQQYYDTPLTFGSGTKLEIK .
Outgoing: 31.1%
